Collected kon values appear next to each entry.
SUBJECT OF TEST: T1, Human ANGPTL4(26-406)-FLAG-His6-Avi (human, UniProt Q9BY76 24-406, biotin on the C-terminal Avi tag in the biotinylated preparations (immobilised form in SET, ELISA and Octet))
T1 construct: also called full-length human ANGPTL4; hANGPTL4
T1 sequence: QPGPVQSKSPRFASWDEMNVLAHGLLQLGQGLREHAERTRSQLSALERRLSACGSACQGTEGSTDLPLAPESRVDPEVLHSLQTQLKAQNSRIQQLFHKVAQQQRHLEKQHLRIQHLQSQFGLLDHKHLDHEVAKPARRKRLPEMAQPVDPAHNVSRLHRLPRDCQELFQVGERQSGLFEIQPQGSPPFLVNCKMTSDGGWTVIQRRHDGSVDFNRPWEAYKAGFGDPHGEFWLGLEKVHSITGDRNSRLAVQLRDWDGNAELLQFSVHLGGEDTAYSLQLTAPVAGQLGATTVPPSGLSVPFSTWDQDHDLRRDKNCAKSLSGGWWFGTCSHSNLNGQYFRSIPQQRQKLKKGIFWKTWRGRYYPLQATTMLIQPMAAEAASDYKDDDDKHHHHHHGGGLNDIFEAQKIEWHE
PROCEDURE SUMMARY: ForteBio Octet, biotinylated antigen on streptavidin sensor, antibody in solution

# BINDER, kon, M⁻¹ s⁻¹
data = [
    ("MOR021800 (antibody, human IgG1, lambda, V domains shown, human IgG1) VH: QVQLVQSGAEVKKPGESLKISCKGSGYSFSTYWISWVRQMPGKGLEWMGIIDPSNSDTRYSPSFQGQVTISADKSISTAYLQWSSLKASDTAMYYCARVYGYVYMDVWGQGTLVTVSS VL: DIELTQPPSVSVSPGQTASITCSGDNLGKKYAYWYQQKPGQAPVLVIYDKTKRPSGIPERFSGSNSGNTATLTISGTQAEDEADYYCASYDWYSSSYVFGGGTKLTVLG", 420000),
    ("MOR021792 (antibody, human IgG1, lambda, V domains shown) VH: QVQLLESGGGLVQPGGSLRLSCAASGFTFSDYAMDWVRQAPGKGLEWVSKISYDGSYTYYADSVKGRFTISRDNSKNTLYLQMNSLRAEDTAVYYCARPSMSYYIIPAGFDVWGQGTLVTVSS VL: DIELTQPPSVSVSPGQTASITCSGDALGVKRASWYQQKPGQAPVLVIYKDNNRPSGIPERFSGSNSGNTATLTISGTQAEDEADYYCSVRTWSMNLYVFGGGTKLTVLG", 250000),
    ("MOR021798 (antibody, human IgG1, lambda, V domains shown, human IgG1) VH: QVQLLESGGGLVQPGGSLRLSCAASGFTFSDYALHWVRQAPGKGLEWVSRISYMGSSTYYADSVKGRFTISRDNSKNTLYLQMNSLRAEDTAVYYCAREHYYSSPMGGVAVDNWGQGTLVTVSS VL: DIVLTQPPSVSGAPGQRVTISCSGSSSNIGYNTVSWYQQLPGTAPKLLIYSNNIRPSGVPDRFSGSKSGTSASLAITGLQAEDEADYYCSSWDFLIKSLVFGGGTKLTVLG", 220000),
    ("MOR021795 (antibody, human IgG1, lambda, V domains shown, human IgG1) VH: QVQLVQSGAEVKKPGSSVKVSCKASGGTFNSYAISWVRQAPGQGLEWMGGIIPLFGFANYAQKFQGRVTITADESTSTAYMELSSLRSEDTAVYYCARESYDPYAFDVWGQGTLVTVSS VL: DIELTQPPSVSVSPGQTASITCSGDNLGKYSASWYQQKPGQAPVLVIHQDNNRPSGIPERFSGSNSGNTATLTISGTQAEDEADYYCASRAHSMHVVFGGGTKLTVLG", 240000),
    ("MOR021830 (antibody, human IgG1, kappa, V domains shown, human IgG1) VH: QVQLLESGGGLVQPGGSLRLSCAASGFTFSSYWMHWVRQAPGKGLEWVSGISYDGSSTNYADSVKGRFTISRDNSKNTLYLQMNSLRAEDTAVYYCARDSYIYDLHWGFDNWGQGTLVTVSS VL: DIQMTQSPSSLSASVGDRVTITCRASQDISSYLNWYQQKPGKAPKLLIYAASRLQSGVPSRFSGSGSGTDFTLTISSLQPEDFATYYCQQSYTHPYTFGQGTKVEIKR", 210000),
    ("MOR021823 (antibody, human IgG1, kappa, V domains shown, human IgG1) VH: QVQLLESGGGLVQPGGSLRLSCAASGFTFSSYYLHWVRQAPGKGLEWVSYISGDGSSTYYADSVKGRFTISRDNSKNTLYLQMNSLRAEDTAVYYCARERSYAHDHWGQGTLVTVSS VL: DIQMTQSPSSLSASVGDRVTITCRASQDIYIDLNWYQQKPGKAPKLLIYAASKLQSGVPSRFSGSGSGTDFTLTISSLQPEDFATYYCQQGYFLPQTFGQGTKVEIKR", 530000),
]
